Metric Name: melting point

// worked examples, melting point included
Structure | melting point
COc1ccc(Cn2cnc3c(-c4ccco4)ncnc32)cc1C | 169 to 170 °C
COc1ccc(Cn2c(Br)nc3c(-c4ccco4)ncnc32)cc1 | 150 to 151 °C

Entry `COc1ccc(Cn2cnc3c(-c4ccco4)nc(F)nc32)cc1` has what melting point?
210 to 215 °C

Which value of melting point has been reported for `CCOc1nc(-c2ccco2)c2ncn(Cc3ccc(OC)cc3)c2n1` in the records?
137 to 138 °C

# lookup: melting point of `Clc1ccc(Cn2cnc3c(-c4ccco4)ncnc32)cc1`
156 to 159 °C

Query: melting point; subject: `COc1ccc(Cn2cnc3c(-c4ccco4)nc(Cl)nc32)cc1C`
177 to 179 °C

For the molecule `COc1ccc(CNc2nc(-c3ccco3)c3ncn(Cc4ccc(OC)cc4)c3n2)cc1` , what melting point is on record?
153 to 154 °C

Fill blank: measured melting point of the molecule `FC(F)(F)Oc1ccc(Cn2cnc3c(-c4ccco4)ncnc32)cc1` is ____.
146 to 147 °C

Entry `COc1ccc(Cn2c(OC)nc3c(-c4ccco4)ncnc32)cc1` : reported melting point = ?
143 to 144 °C

Form field: reported melting point of `COc1ccc(Cn2cnc3c(-c4ccco4)nc(N)nc32)cc1`
235 to 237 °C (dec.)

// query melting point value for entry `Cc1ccc(Cn2cnc3c(-c4ccco4)ncnc32)cc1`
166 to 167 °C

Please report the recorded melting point for `COc1ccc(Cn2cnc3c(-c4ccco4)nc(OC(C)C)nc32)cc1` .
145 to 146 °C

Query: melting point; subject: `COc1ccc(Cn2ccc3c(-c4ccco4)ncnc32)cc1`
130 to 131 °C

Could you tell me which melting point is on file for `C#Cc1nc(-c2ccco2)c2ncn(Cc3ccc(OC)cc3)c2n1` ?
155 °C

# input molecule: `Clc1ccc(Cn2cnc3c(-c4ccco4)ncnc32)cc1Cl` ; wanted: its melting point
183 to 185 °C

Data request, read-out melting point, for `COc1ccc(Cn2cnc3c(-c4ccco4)nc(C(C)=O)nc32)cc1`
166 to 167 °C

For the molecule `Fc1ccc(Cn2cnc3c(-c4ccco4)ncnc32)cc1` , what melting point is on record?
162 to 164 °C

GET /values?readout=melting point&item= `CCCCOc1nc(-c2ccco2)c2ncn(Cc3ccc(OC)cc3)c2n1`
113 °C

###

The entries below come with measured melting point values attached.

Structure | Result
COc1ccc(Cn2cnc3c(-c4ccc(OC)cc4)nc(Cl)nc32)cc1 | 152 to 154 °C

// lookup melting point for `Nc1ccc(Cn2cnc3c(-c4ccco4)ncnc32)cc1`
195 to 197 °C

Give its melting point value. Item: `CC(C)(C)c1ccc(Cn2cnc3c(-c4ccco4)ncnc32)cc1`
185 to 187 °C

Sample `Oc1ccc(Cn2cnc3c(-c4ccco4)ncnc32)cc1` — what was its melting point?
231 to 233 °C

###

Recorded melting point by entry

Molecule | melting point
CNc1nc(-c2ccco2)c2ncn(Cc3ccc(OC)cc3)c2n1 | 144 to 145 °C
C=C(OCC)c1nc(-c2ccco2)c2ncn(Cc3ccc(OC)cc3)c2n1 [Example 83] | 144 to 145 °C

Which measured melting point value corresponds to COc1ccc(Cn2cnc3c(-c4ccco4)nc(C)nc32)cc1 [Example 76] ?
127 to 130 °C

Consider the molecule shown here: Fc1ccc(Cn2cnc3c(-c4ccco4)nc(Cl)nc32)cc1 [Example 49] What is its recorded melting point?
152 to 155 °C

Can you look up the measured melting point of `COc1ccc(Cn2cnc3c(-c4ccco4)nc(N(C(C)=O)C(C)=O)nc32)cc1` for me?
187 to 189 °C

Return reported melting point; argument: CC(=O)Nc1ccc(Cn2cnc3c(-c4ccco4)ncnc32)cc1 [Example 44]
278 to 280 °C

Given COc1ccc(Cn2cnc3c(-c4ccco4)nc(C(C)C)nc32)cc1 [Example 78] , state its recorded melting point.
123 °C

###

A collection of molecules and their measured melting point

As a guide, the following entries are already answered.
Structure | melting point
COc1ccc(Cn2cnc3c(-c4ccco4)nc(OC)nc32)cc1 | 167 to 169 °C
Clc1nc(-c2ccco2)c2ncn(Cc3ccc(Cl)c(Cl)c3)c2n1 | 191 to 193 °C
COc1ccc(Cn2cnc3c(-c4ccco4)nc(N(C)C)nc32)cc1 | 163 to 164 °C
COc1ccc(Cn2cnc3c(-c4ccco4)nc(C(F)(F)F)nc32)cc1 | 149 to 150 °C

Returns the measured melting point for the input molecule. Input: `COc1cccc(Cn2cnc3c(-c4ccco4)nc(Cl)nc32)c1`
160 to 161 °C

Can you share its melting point? I mean this molecule: `COc1ccc(Cn2cnc3c(-c4ccco4)nc(C#N)nc32)cc1`
205 to 207 °C

May I ask what melting point has been recorded for `COc1ccc(Cn2cnc3c(-c4ccco4)nc(NC(C)=O)nc32)cc1` ?
167 to 168 °C

Would you kindly share the measured melting point for `COc1ccc(Cn2cnc3c(-c4ccco4)nc(OCc4ccccc4)nc32)cc1` ?
122 °C

I would be grateful if you could share the reported melting point for `COc1ccc(Cn2cnc3c(-c4ccco4)nc(-c4ccccc4)nc32)cc1` .
140 to 142 °C

Can you look up the measured melting point of `CC#Cc1nc(-c2ccco2)c2ncn(Cc3ccc(OC)cc3)c2n1` for me?
158 to 160 °C

Suppose we examine the molecule `COc1ccc(Cn2cnc3c(-c4ccco4)nc(C4CC4)nc32)cc1` ; what melting point value has been reported?
115 to 116 °C
